Data origin: the supplement of paper PMC9170038

- System: MS2 coat protein
- Protocol Description: apparent KD of MS2 coat protein; designed switch direction (-1 OFF switch, 1 ON switch): -1; higher = weaker reporter binding
- Details: Eterna round: R95; input ligand: none
Please use satisfied whenever apparent KD of MS2 coat protein is not below 50 nM, and not satisfied whenever it is.

| Sequence String | Assigned Label |
| --- | --- |
| GGUACUAUCACCUGAGUGGUAGUGCAACAAGCUUGUGAUACAUGAGGAUCACCCAUGUCCUCAUUUGCUCGUCUUAU [JL-sv3-2.25 JL mod] (puzzle: Sensor v3, turn-off variant 2) | satisfied |
| ACAAGCUUUUUGUUCGUCUUAUAAUAUUCAAUAAAGAUAACAUGAGGAUCACCCAUGUAACAAAGACGGACUCAUGU [Sesor Array 16 - Jieux - Sensor v3, turn-off variant 2] (puzzle: Sensor v3, turn-off variant 2) | not satisfied |
| AAGUAUAGAGGAUAUAGUAGUUACAACAUGAGGAUCACCCAUGUUCUUCAUAACGUAGAUCUAGAAGGCUGAUAAA [EX-5 Malc#29] (puzzle: Exclusion 5) | satisfied |
| UGUACUAUGCGAGCUGACUUGCGUAGUGCAGCAGGUGUAACAUGAGGAUCACCCAUGUCCUCAUUUGCUCGUCUUAA [Mat - Sensor v3 - Turn-off var 2 - D10] (puzzle: Sensor v3, turn-off variant 2) | satisfied |
| CUUCACCCACCAGAGCUCACCCACAAACCUGCCCUGGUGACAUGAGGAUCACCCAUGUUUUUUGCCCGUCUUAUCUU [Diletibi] (puzzle: Sensor v3, turn-off variant 2) | not satisfied |
| UUACGGCGGAUCGUGGCUUUUUGCUCGUCUUGUGCUACAACAUGAGGAUCACCCAUGUAGAGGUGAUCCGUUGUAUU [Grok-var2-19 mod JAL] (puzzle: Sensor v3, turn-off variant 2) | satisfied |
| AAAAGGCUAGGAUAUCGCGGUAACAACAUGAGGAUCACCCAUGUGAAGGUGUCUUCUGCCCGAGAAGGAGCAGAGU [Tientixe] (puzzle: Exclusion 5) | not satisfied |
| CUGGUCCGAGGAUAUAUUAUGUGAAACAUGAGGAUCACCCAUGUAAUAUGAUGGAAAUAAAUAGAAGGCGGACUAG [Mat - Exclusion 5 - JL mod - D32] (puzzle: Exclusion 5) | not satisfied |
| UAAUACAAGUAAAGAUCCUACAUGAGGAUCACCCAUGUGCUCGUCUUGUAAAGUACUAUCACGAAAGUGAUAGUACA [Mat - Sensor v3 - turn-off var 1 - Eli Mod - D85] (puzzle: Sensor v3, turn-off variant 1) | satisfied |
| AAGAAACAUGAGGAUCACCCAUGUGAGGAUAUGUAAAAUAAAAUAAAAGAAAUAAUAAACAGAAGGCACAAAGG [Mat - Mod of Hog D16] (puzzle: Exclusion 1) | not satisfied |

###

- Tested on: MS2 coat protein
- Protocol Description: apparent KD of MS2 coat protein; higher = weaker reporter binding
- Details: Eterna round: R107; input ligand: arginine 13.2 mM
Property Name: apparent KD of MS2 coat protein (µM)

| Sequence String | Property Name | Unit Descriptor | Recorded Measurement |
| --- | --- | --- | --- |
| UAUAUAGAUGGACGUCAUCUAGAUGCAGAAGGAGCGUAGGAAACUACAGGUAGGUCGCUGAGGUACAUGAGGAUCACCCAUGUAG [SSArg A #21 Slice of Pi] | apparent KD of MS2 coat protein | µM | 0.0227 |
| UGUAUGGACUGAAGGAGCGGUAGAUAACCUGAGGAUCACCCGGGUAAUAAAGGCGAAAGCCACCAGGUAGGUCGCAGUCCAUACU | apparent KD of MS2 coat protein | µM | 0.0933 |
| GGAUAGGACACGGCCGCCACUAGCUAGGAUACUAGCAACAUUUCCUCAGAUGAGGAUCACCCAUCUAGGACCGGGUGUCCUAUCG | apparent KD of MS2 coat protein | µM | 0.0257 |
| GAUUACAUGAGGAUCACCCAUGUAACUGAAGGAGCGGUGAUAAAGCCAGGUAGGUCGCAGAACGACAUGUGGUUCAUCCAUGUAA [#16 Exclusion - Arginine A] | apparent KD of MS2 coat protein | µM | 0.0337 |
| AGAUUCGACACGGCCGCCACUCGUGGAGGAUUUCCGAGUGUCGAACAUGAGGAUCACCCAUGUACGAGGACCGGGUGUUGAGUCU [XTryp B #14] | apparent KD of MS2 coat protein | µM | 0.0211 |
| UUUUUUAACUGAAGGAGCGUCACAUGAGGAUCACCCAUGUAUUAGAUGAGAAUGAUCUUGUGGCAGGUAGGUCGCAGAGGAAGGG [#30 Exclusion - Arginine B] | apparent KD of MS2 coat protein | µM | 0.521 |
| GGCACUCUGUAAGAUACCAGACGUCGGUGCUUACAUGAGGAUCACCCAUGUUGCUUUUUAGUCCCUUGGCAGCUUCGGAUAACCA [Oniste] | apparent KD of MS2 coat protein | µM | 0.0886 |
| UGAUAUGUAGGAAGGAGCGCAUACUUCACAUGAGGAUCACCCAUGUCAAGACGUGAGUCAGUGCAGGUAGGUCGCCUAGUUAUGA [Same State - Arginine B (Freestyle 20)] | apparent KD of MS2 coat protein | µM | 0.0302 |
| GGGUCGCGUUCGGCCGCCACUUGGAAACAUGAGGAUCACCCAUGUCAUAUGGUGGGACAUGUUGUAAGGACCGGGAACCGUCCUA [theeternabot_exclusion_MS2_Trp_B_11] | apparent KD of MS2 coat protein | µM | 0.0346 |
| GGCACACAUGAGGAUCACCCAUGUGGCGAUACCAGUUGAUGGUAAAACCCUUGGCAGCGCCAGUCACAUGCAGAUAGUUACUGAA [theeternabot_sameState_MS2_Theo_A_32] | apparent KD of MS2 coat protein | µM | 0.0142 |
| GAUAUGGAAACAUGUCAGAUCCUUACCGGUCGAGGACCGGUACGGCCGCCACUCGCAAAUAUUGUACAUGAGGAUCACCCAUGUA [Ex Tryptophan A 17] | apparent KD of MS2 coat protein | µM | 0.0132 |
| UUAUGCAGGUCGGCCGCCACUACACACAUGAGGAUCACCCAUGUAGUUACUGGGUGAAGUGGCAGUAGGACCGGGACCCGCACAC [Brourdmod22] | apparent KD of MS2 coat protein | µM | 0.226 |

###

- Tested on: MS2 coat protein
- Protocol Description: apparent KD of MS2 coat protein; designed switch direction (-1 OFF switch, 1 ON switch): 1; higher = weaker reporter binding
- Details: input ligand: microRNA oligo, concentration not stated
Please use YES whenever apparent KD of MS2 coat protein is not below 60 nM, and NO whenever it is.

| Sequence String | Assigned Label |
| --- | --- |
| UAAGUAUGUUGAGGAUAUUAUGUCAAGAGAGAUGACAUGAGGAUCACCCAUGUGUGAAGAGGAUUUAAGAAGGCAACAUACUUA [JR_SSNG2_Sub090] (Eterna round: R96, puzzle: Same State NG 2) | NO |
| AAUUUAAUACAUGAGGAUCACCCAUGUAAAUUAAUUAAGAUCAAGGAUAUCAGCUCGAAUAGAGCUGAGAAGGUGAUCACAUGU [SSNG3/19-A1] (Eterna round: R96, puzzle: Same State NG 3) | YES |
| GUUACAUGAGGAUCACCCAUGUAUGUGUGGGAGUAAGUGUCUUAGGAUAUCUAAUAUUUAAAUUAAGAGAAGGAAGAUUGUUGU [JMF's solution 6] (Eterna round: R96, puzzle: Same State NG 3) | YES |
| UUGAAGAACAUAGGAUAUUGAAUACAUAUGUUUAACAUGAGGAUCACCCAUGUGGGUUGCGGUAUCGAGAAGGAUGAAUAAAAG [Mat - Same State NG 2 - JL mod - D15] (Eterna round: R96, puzzle: Same State NG 2) | YES |
| AGUAGUGUAACAUGAGGAUCACCCAUGUAAGAAGAUGUAACCUAGGAUAUGGAUGAUAUGUUAGACCAGAAGGAGGAUUGUUUA [JR_SSNG3_Sub039] (Eterna round: R96, puzzle: Same State NG 3) | YES |
| UUGCGGGCUUGAGGAUAUUGAGUACAUAUGUUUAACAUGAGGAUCACCCAUGUGGGUUGCGGUAUCGAGAAGGUAGCUUCCUGC [salish99_SSNG2_r04_812] (Eterna round: R96, puzzle: Same State NG 2) | YES |
| UCAGUCAUGUAAGGAUAUGCAGCCGUUUCGGCUGCAGAAGGUACUAUAAUUACAUGAGGAUCACCCAUGUUAUAAAAUUUAUAU [JL SSNG1 1.25] (Eterna round: R96, puzzle: Same State NG 1) | NO |
| CUUUUUAAUGCAGGAUAUGAUCAACAUGAGGAUCACCCAUGUGGCGUUGUGAGUAGGGAGAGUGAUCAGAAGGGCGUCUCCUCG [SS-NG2-LRO09] (Eterna round: R96, puzzle: Same State NG 2) | NO |
